reactivity (signal normalized to Bi-SEQ ID NO:1) for assorted binders
Biological target: T1, Bi-SEQ ID NO: 1, *H**Glu(Bi-PEG)*NLERECVEETCSYEEA*NH2 (disulfide 6-11 (inferred))
T1 construct: Synthetic peptide
T1 peptide: {Glu(Bi-PEG)}-NLERECVEETCSYEEA-NH2
Test: ECL assay (Elecsys 2010), ruthenylated antibody and biotinylated peptide, streptavidin beads
Bridge positions count the residues as written; N and C are the ends. Glu(Bi-PEG) = N-terminal added Glu carrying a biotin-linker
REPORTED METRIC: reactivity (signal normalized to Bi-SEQ ID NO:1) (%)

BINDER | READOUT VALUE
monoclonal anti-PIVKA-II antibody 4E8 (antibody, V domains shown, Recombinant rabbit IgG from B-cell cloning, expressed in HEK cells) VH: QSVEESGGRLVTPGTPLTLTCTVSGFDLSRYAVGWVRQAPGKGLEYIGLITSDGRTYYANWAKGRFTVSKTSSTTVDLKMTSPTTEDTATYYCYRNVSLWGQGTLVSVSS VL: DVVMTQTPASVEAAVGGTVTIKCQASQSIGSNLAWYQQKSGQPPKLLIYSASTLAPGVSSRFSGSGSGTEFTLTFTGVQCGDAATYFCQSYAGVSANIFYYSFGGGTEVVVM | 100
monoclonal anti-PIVKA-II antibody 7A10 (antibody, V domains shown, Recombinant rabbit IgG from B-cell cloning, expressed in HEK cells) VH: QSLEESGGRLVTPGTPLTLTCTVSGIDLSTYAMGWVRQAPGKGLEYIGIIRSSGRTYYASWAKGRFTVSKTSSTTVDLSMTSPTTEDTATYYCYRNVSLWGQGTLVSVSS VL: DVVMTQTPSSVEAAVGGTVTIKCQASQSIGNNLAWYQQKPGQRPNLLIYSASTLASGVPSRFRGSGSGTEFTLTISGVQCDDAATYYCQSYAGVSESVFWYSFGGGTGVVVK | 100
monoclonal anti-PIVKA-II antibody 13H7 (antibody, V domains shown, Recombinant rabbit IgG from B-cell cloning, expressed in HEK cells) VH: QSVEESGGRLVTPETPLTLTCTVSGFDLSRYAMGWVRQAPGKGLEYIGLIVSDGRTYYASWAKGRFTISKTSSTTVDLKMASPTTEDTATYYCYRNVSLWGQGTLVSVSE VL: DVVMTQTPSSVEAAVGGTVTIKCQASQSIGSNLAWYQQKPGQPPKLLIYSASTLASGVSSRFKGSGSGTEFTLTISDLECADAATYYCQSYAGISANIFYYAFGGGTEVVVM | 100

Measured values drawn from patent US20230055005A1 for this set.
